Target: T1, DFNB31_3, Q9P202
T1 sequence (Q9P202 811-907, limits assumed, looked up): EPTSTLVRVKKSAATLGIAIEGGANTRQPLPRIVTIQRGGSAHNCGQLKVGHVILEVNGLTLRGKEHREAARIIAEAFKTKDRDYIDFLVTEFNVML
Experiment: holdup assay
Design: key: below the threshold = too weak to quantify, mostly under pKd 3.1 to 4
Settings: plain residues with an end cap or a label only (N-terminal biotin on a linker: ado-ado)
Listed here: items and their measured pKd.
Value Kind: pKd

1. EDGESWEYQI [TRPV6, Q9H1D0] : 3.6
2. AQRARSPSDV [GPR12, P47775] : 3.59
3. GIKKITSTAL [RPS6KA3, P51812] : 4.23
4. DPAESMESLV [PTPRG, P23470] : 3.88
5. SVTSERETNI [SLC16A7, O60669] : 3.97
6. DFLSTFHIRI [CIB2, O75838] : 3.5
7. MHIQEKGFHV [EPHA6, Q9UF33] : 4.07
8. ELSATVTTDC [TRIP6, Q15654] : 3.62
9. QKAPTKEFYA [SDC2, P34741] : 3.91
10. TISFTQTSQF [SLC1A1, P43005] : 3.99
11. PTPDLPQTRV [KLHDC7A, Q5VTJ3] : 4.1
12. IDESKKEWLI [CNTNAP2, Q9UHC6] : 3.52
13. DDASLPVSDV [PLEKHA1, Q9HB21] : 4.54
14. EDPRVEVTQF [SLC22A9, Q8IVM8] : 3.84
15. PSHPRLQTHV [KIRREL2, Q6UWL6] : 4
16. RSSGGDDFWF [KCNV1, Q6PIU1] : 4.02
17. SLNANEVEWF [RNF130, Q86XS8] : 4.16
18. TGLWKHETTV [ADGRA3, Q8IWK6] : 3.85
19. EDLEDEWEVI [TECPR2, O15040] : 3.76
20. DRIQSCLSDA [SBF1, O95248] : 3.74
21. QRPYRRGSEI [KCNJ18, B7U540] : 3.83
